- system under test: human PR-B (Homo sapiens, UniProt P06401)
- Construct: expressed in transfected cells; host or cells: 1470.2 mouse mammary adenocarcinoma cells
- method summary: PR-B transactivation of MMTVLuc reporter in transiently transfected 1470.2 cells
- Format: cell-based
- condition parameters: 1470.2 cells, transfected human PR-B, MMTVLuc reporter; read-out: EC50 from dose-response curves
observation type: EC50 (nM)
Numbers only here, please. The scale is nM.

Problem: Tell me the measured EC50 of CCC(=O)[C@@]1(C)CC[C@H]2[C@@H]3CCC4=CC(=O)CCC4=C3CC[C@@]21C [R5020, promegestone, reference compound] , please.
Result: 0.4

====

- system under test: human PR-B (Homo sapiens, UniProt P06401)
- Construct: expressed in transfected cells; host or cells: 1470.2 mouse mammary adenocarcinoma cells
- Sequence (P06401 1-933): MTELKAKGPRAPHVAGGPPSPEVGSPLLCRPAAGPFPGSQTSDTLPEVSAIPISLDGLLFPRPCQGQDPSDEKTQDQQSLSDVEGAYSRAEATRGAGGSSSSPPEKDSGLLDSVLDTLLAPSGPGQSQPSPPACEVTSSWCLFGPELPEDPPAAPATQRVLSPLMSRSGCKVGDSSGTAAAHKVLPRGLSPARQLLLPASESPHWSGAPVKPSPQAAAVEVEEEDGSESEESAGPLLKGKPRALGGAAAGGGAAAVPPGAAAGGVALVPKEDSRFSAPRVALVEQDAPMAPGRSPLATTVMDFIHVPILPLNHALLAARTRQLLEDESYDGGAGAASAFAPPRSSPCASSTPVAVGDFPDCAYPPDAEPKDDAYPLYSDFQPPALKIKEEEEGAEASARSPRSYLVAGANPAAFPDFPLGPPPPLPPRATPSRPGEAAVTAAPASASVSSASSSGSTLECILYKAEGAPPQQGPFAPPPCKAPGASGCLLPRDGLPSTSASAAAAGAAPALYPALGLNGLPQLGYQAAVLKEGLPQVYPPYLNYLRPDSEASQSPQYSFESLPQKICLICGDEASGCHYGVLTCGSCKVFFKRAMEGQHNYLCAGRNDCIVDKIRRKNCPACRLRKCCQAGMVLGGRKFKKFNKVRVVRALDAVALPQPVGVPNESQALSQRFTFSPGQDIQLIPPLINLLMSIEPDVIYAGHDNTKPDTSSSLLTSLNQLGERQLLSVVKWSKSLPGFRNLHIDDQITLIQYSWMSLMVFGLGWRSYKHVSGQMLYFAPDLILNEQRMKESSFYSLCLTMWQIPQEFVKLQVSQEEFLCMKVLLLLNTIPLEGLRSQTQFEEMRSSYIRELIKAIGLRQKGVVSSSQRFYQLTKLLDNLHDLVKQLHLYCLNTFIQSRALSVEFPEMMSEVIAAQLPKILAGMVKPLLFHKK
- method summary: PR-B transactivation of MMTVLuc reporter in transiently transfected 1470.2 cells
- Type: cell-based
- condition parameters: read-out: EC50 from dose-response curves
pEC50: −log10 of the molar value.
observation type: pEC50

Problem: Tell me the measured pEC50 of C[C@@H]1C[C@H]2[C@@H]3CCC4=CC(=O)C=C[C@]4(C)[C@@]3(F)[C@@H](O)C[C@]2(C)[C@]12OCC2=O [Dex-Ox, dexamethasone oxetanone] , please.
Result: ~7.52

Hey, just so you know, these numbers are from patent US20030207854A1.
